assay: yeast display, Sf9 membrane polyspecificity reagent, FACS + sequencing; frameworks hold sequencing errors
test readout: polyreactivity (PSR sort gate)

Solved cases (4 shown):
polymer_sequence=QVQLVESGGGLFQAGGSLRLSCAASGITLYLYVMGWYRQAPGIEREFVAAIRWSGGSTYYADSVKGRFTISRDNAKYTVYLLMNSLKPEDTAVYYCAVTYVGHVYEYYYWGQGTQVTVSS test_readout="polyreactivity (PSR sort gate)" value_observed="low polyreactivity"
polymer_sequence=QVQLVESGGGLVQAGGSLRLSCAASGRTFFKNALGWYRQAPGKERELVASISSRSGTTYYADSVKGRFTISRDNAKNTVYLQMNSLKPEDTAVYYCAASRNRYSYGYWGQGTQVTVSS test_readout="polyreactivity (PSR sort gate)" value_observed="high polyreactivity"
polymer_sequence=QVQLVESGGGLVQAGGSLRLSCAASGFTYHVYAMGWYRQAPGKERELVAAISTGDDTTFYADSVKGRFTISRDNAKNTVYLQMNSLKPEDSAVYYCAAEYQVEYYYTTNFLTTYDYWGQGTQVTVSS test_readout="polyreactivity (PSR sort gate)" value_observed="low polyreactivity"
polymer_sequence=QVQLVESGGGLVQAGGSLRLSCAASGSTFAPNAMGWYRQAPGKEREFVATISASGGYTYYADSVKGRFTISRDNAKNTVYLQMNSLKPEDTAVYYCYAVWRVGRQLSQAKIPYDYWGQGTQVTVSS test_readout="polyreactivity (PSR sort gate)" value_observed="low polyreactivity"

Please examine the following record next.
(Q) Data request, read-out polyreactivity (PSR sort gate), for QVQLVESGGGLVQAGGSRRLSCAASGFTFLAYALGWYRQAPGKERELVAAISWDGGSTYYADSVKGRFTISRDNAKNTVYLQMNSLKPEDTAVYYCNRRSRRQGGYWGQGTQVTVSS
(A) high polyreactivity

====

test: yeast display, Sf9 membrane polyspecificity reagent, FACS + sequencing; frameworks hold sequencing errors
test readout: polyreactivity (PSR sort gate)

Below are worked cases with known answers.
polymer_sequence=QVQLVESGRGLVQAGGSLRLSCAASGRIYRRNAIGWYRQAPGKERELVAAITWSDGSTYYADSVKGRFTISRDNAKNTVYFQMNSLKPEDTAVYYCNKVTRSPSEYDYWGQGTQVTVSS test_readout="polyreactivity (PSR sort gate)" value_observed="high polyreactivity"
polymer_sequence=QVHLVESGGGLVQAGGSLRLSCAPSGLTFPYNAMGWYRQAPGKESELVAAISRGGGTNYADSVKGRFTISRDNAKNTVYLQMNSLKPEDTAVYYCAAEYATWWGGYDYSGQGTQVTVSS test_readout="polyreactivity (PSR sort gate)" value_observed="low polyreactivity"
polymer_sequence=QVQLVESGGRLVQAGGSLRLSCAASGRIFAYYAMGWYRQAPGKERELVAAISRSGVSTYYADSVKGRFTISRDNAKNTVYLQMNSLKPEDTAVYYCAARWRSGFTSGDYWGQGTQVTVSS test_readout="polyreactivity (PSR sort gate)" value_observed="low polyreactivity"
polymer_sequence=QVQLVESGGGLVQAGGSLRLSCAASGFTFGKYTMGWYRQAPGKERELVAAISRSGGSTYYADSVKGRFTISRDIAKNTVYFQMNSLKPEDTAVYYCAVDYTYDMDYWGQGTHVTVSS test_readout="polyreactivity (PSR sort gate)" value_observed="high polyreactivity"
polymer_sequence=QVQLVESGGGLVQAGGSLRLSCAASGLTFFNYAMGWNRQAPGKERELVASITSGGSTNYADSVKGRFTISRDNAKNTVYLQMNSLNPEDTAVYYCAARYPYRTYKLSHSYARPYGYWGQGTQVTVSS test_readout="polyreactivity (PSR sort gate)" value_observed="high polyreactivity"
polymer_sequence=EVQLVESGGGLVQAGGSLRLSCADSGGIFIFYALGWYRQAPWKEREFVASIRSNVGSTYYADSVKGRFTISRDNAKNTVYLQMNSLNPEDTAVYYCNSRYYWYRGYDYWGQGTQVTVSS test_readout="polyreactivity (PSR sort gate)" value_observed="high polyreactivity"
polymer_sequence=QVQLVESGGGLVQAGGSLRLSCAASGLTFEDYAMGWNRQEPGKEREFVAAISTSGGRTYYADSVKGRFTISRDNAKNTVYLQMNSLKPEDTAVYYCAAGGWYGYVYRFYYWGQGTQVTVSS test_readout="polyreactivity (PSR sort gate)" value_observed="high polyreactivity"
polymer_sequence=QVQLVESGGGLVQAGGSLRLSCAASGRIFRYYAMGWYRQAPGKERELVAAITRGGRTNYADSVKGRFTISRDNAKNTVYLQMNSLKQEDTAFYYCAARNVFQSVHVRGGYWGQGTQVTVSS test_readout="polyreactivity (PSR sort gate)" value_observed="high polyreactivity"
polymer_sequence=QVQLVESGGGLVQAGGSLRLSCAASGSTFWFYALGWYRQAPGKERELVAAISSSGTTTYYADSVKGRFTISRDNAKNTVYLQINSLKPEDTAVSYCAAQYRGSYRTTYDYWGQCTQVTVSS test_readout="polyreactivity (PSR sort gate)" value_observed="low polyreactivity"
polymer_sequence=QVQLVESGGGLVQAGGSLRLSCAASGSIIYYNAMGWYRQAPAKERELVAAITGSGGSTYYADSVKGRFTISRDNAINTVYLQMNSLKPEDTAVYDCAADYSLYGWWFRNDYWGQGTQVTVSS test_readout="polyreactivity (PSR sort gate)" value_observed="low polyreactivity"

Consider the record given below.
(Q) Requested read-out: polyreactivity (PSR sort gate). Entry: QVQLVESGGGLVQAGGSLRLICAASRSIFEINAMGWYSQAPGKERELVADNRRGDSTNYADSVNGRFTISRDNAKNTVYLQMNSLKPEVTAVYYCAARWRRSIYGVYPQRPYDYWGQGTQVTVSS
(A) high polyreactivity
